Biological target: T1, recombinant human LAG3 expressed with a C-terminal mouse IgG2a mFc tag (human)
T1 construct: Called dimeric; also called hLAG3-mFc; hLAG3 dimer
T1 chain: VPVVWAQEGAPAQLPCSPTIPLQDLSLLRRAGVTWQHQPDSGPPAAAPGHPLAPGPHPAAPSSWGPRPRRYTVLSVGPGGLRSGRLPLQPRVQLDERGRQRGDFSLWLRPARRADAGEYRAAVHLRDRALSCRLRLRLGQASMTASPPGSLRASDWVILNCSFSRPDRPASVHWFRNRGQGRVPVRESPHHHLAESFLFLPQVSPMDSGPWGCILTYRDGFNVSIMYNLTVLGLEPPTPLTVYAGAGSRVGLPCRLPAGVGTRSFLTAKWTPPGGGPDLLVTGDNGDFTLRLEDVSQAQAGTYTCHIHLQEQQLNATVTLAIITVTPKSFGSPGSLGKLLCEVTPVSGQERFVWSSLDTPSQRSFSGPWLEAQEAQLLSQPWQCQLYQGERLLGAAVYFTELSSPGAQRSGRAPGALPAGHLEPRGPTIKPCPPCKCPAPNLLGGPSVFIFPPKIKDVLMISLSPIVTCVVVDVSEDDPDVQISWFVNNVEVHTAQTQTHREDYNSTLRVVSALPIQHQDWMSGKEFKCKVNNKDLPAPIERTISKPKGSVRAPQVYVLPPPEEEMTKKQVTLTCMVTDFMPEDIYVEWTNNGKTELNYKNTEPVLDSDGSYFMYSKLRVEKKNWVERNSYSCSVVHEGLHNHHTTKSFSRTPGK
Assay: SPR, mAb captured, 25 C
Recorded kon for the following binders
Write the value in M⁻¹ s⁻¹ as a bare number.

H4H14813N (antibody, human IgG4, V domains shown, H4H = human IgG4 Fc with S108P hinge mutation) VH: QVQLQQWGAGLLKPSETLSLTCAVYGGSFSGYYWNWIRQPPGKGLEWVGEISHRGSTNYNPSLKSRVTISLDTSKNQFSLKLTSVTAADTAVYYCSRDEELEFRFFDYWGQGTLVTVSS VL: EIVLTQSPATLSLSPGERATLSCRASQSVSSYLAWYQQKPGQAPRLLVYGASNRATGIPARFSGSGSGTDFTLTISSLEPEDFAFYYCQQRSNWPLTFGGGTKVEIK has a reported kon of 958000

Next:
kon recorded for this binder, H4sH15479P (antibody, V domains shown) VH: QVQLQQWGAGLLNPSETLSLTCAVYGGAFSDYYWNWIRQPPGKGLEWIGEINHRGSTNYNPSLKSRVTISVDTSKNQFSLRMSSVTAADAAVYYCARGEDYDIWNGYYQEKWGQGTLVTVSS VL: EIVLTQSPATLSLSPGERATLSCRASQSISTYLAWYQQKPGQAPRLLIYDASKRATGIPARFSGSGSGTDFTLTISSLEPEDFVVYYCHQRSNWPLTFGGGTKVEIK , is 3.05e+06
